# System: MS2 coat protein
# experimentDescription: apparent KD of MS2 coat protein; designed switch direction (-1 OFF switch, 1 ON switch): 1; higher = weaker reporter binding
# measurementContext: input ligand: FMN 200 uM
A collection of sequences and their measured apparent KD of MS2 coat protein

- residues: "GAGAGAGGGUGAGGAUAUGGAGUAAUAAUGAUACCAGAAGGCACAGACAUGAGGAUCACCCAUGUGGGAAUAAUCCAGAGAGAG [Parity 7 - Jieux - Same State NG 1] (Eterna round: R96, puzzle: Same State NG 1)"
  apparent KD of MS2 coat protein: "0.506 µM"
- residues: "GGUAUCAUCACAGGAUAUGCUAUCCUUUGGGUAGCAGAAGGGUGGAACAUGAGGAUCACCCAUGUGGUGCCAGGGCGUGAGCCC [JL SSNG1 1.89] (Eterna round: R96, puzzle: Same State NG 1)"
  apparent KD of MS2 coat protein: "0.177 µM"
- residues: "AGAUGUUAAUCAGGAUAUGGGCACAUGAGGAUCACCCAUGUAAAUUAGAUACUAUGUGGUCAAGUCUAGAAGGGAUGGCUAACA [SameState NG2 #81] (Eterna round: R96, puzzle: Same State NG 2)"
  apparent KD of MS2 coat protein: "0.346 µM"
- residues: "GAGCUCGUGUGAGGAUAUGCCGCCGUUUCGGCUGCAGAAGGUGCUACGUUACAUGAGGAUCACCCAUGUCUCUGUUGUUUCGUU [salish99_SSNG1_r04_959] (Eterna round: R96, puzzle: Same State NG 1)"
  apparent KD of MS2 coat protein: "0.0185 µM"
